# Test system: A-549
# Test description: Inhibition of cells growth by colorimetric (SRB) assay, A-549
# Test conditions: SRB assay, 48 hours exposure
Kindly state A-549 TGI for each of the entries shown.
// return just the number, without any unit appended

Item under review: "Cc1nccc(-c2c3cccnc3n3c(N)nccc23)n1" . Reported A-549 TGI? 9.45E−06

Would you mind doing "CSc1nccc(-c2c3c(N)ccnc3n3c(N)nccc23)n1.Cl" as well? 9.34E−07

Same for "Nc1nccc2c(-c3ccncn3)c3cccnc3n12" 5.60E−07

Further, for "CSc1nccc2c(-c3ccccc3)c3cccnc3n12" ? 3.43E−05

Next molecule up: "Cl.Nc1nccc(-c2c3c(Cl)ccnc3n3c(N)nccc23)n1" 1.57E−06

For CSc1nccc(-c2c3cc4ccccc4nc3n3c(N)nccc23)n1 [Compound 18a] then? 1.66E−05

Another molecule to check: "CSc1nccc(-c2c3c(O)ccnc3n3c(N)nccc23)n1" 3.08E−05

How about this molecule: "CSc1nccc(-c2c3cccnc3n3c(N)nccc23)n1.Cl" 5.10E−06

# iterate: "Cl.Nc1nccc(-c2c3c(O)ccnc3n3c(N)nccc23)n1" 1.10E−06

Next molecule up: "CSc1nccc(-c2c3c(Cl)ccnc3n3c(N)nccc23)n1.Cl" 2.16E−05

Next record, please: "COc1cccc(-c2c3cccnc3n3c(N)nccc23)c1.Cl" 3.06E−05

Repeat for the following molecule: "COc1cccc(-c2c3cccnc3n3c(SC)nccc23)c1" 3.11E−05

Query Nc1nccc(-c2c3cccnc3n3c(N)nccc23)n1 [Deoxyvariolin 4, deoxyvariolin B, reference compound] next 2.62E−07

And "CS(=O)(=O)c1nccc(-c2c3cccnc3n3c(N)nccc23)n1" ? 2.94E−05

What do we get for "CSc1nccc(-c2c3cccnc3n3c(N(C(C)=O)C(C)=O)nccc23)n1" ? 1.22E−05

Next up: "COc1ccc(COc2nccc(-c3c4cccnc4n4c(N)nccc34)n2)cc1" 2.51E−05

And the next one, "CSc1nccc2c(-c3cccc([N+](=O)[O-])c3)c3cccnc3n12" ? 2.97E−05

Next: "CSc1nccc(-c2c3c(O)ccnc3n3c(N)nccc23)n1.Cl" 4.55E−06

====

# Test system: HT-29
# Test description: Inhibition of cells growth by colorimetric (SRB) assay, HT-29
# Test conditions: Homo sapiens, HT-29, 48 h, read-out: LC50 HT-29, SRB assay, 48 hours exposure
# Method: The finality of these assays is to interrupt the growth of a “in vitro” tumor cell culture by means a continued exhibition of the cells to the sample to be testing. […] Cells are seeded in 96 well microtiter plates, at 5×10^3 cells per well in aliquots of 195 μl medium, and they are allowed to attach to the plate surface by growing in drug free medium for 18 hours. […] Optical densities are read on a automated spectrophotometric plate reader at a single wavelength of 490 nm. […]
Readout name: CC50 (µM)
API: value field is a number in µM; no unit string.

Which CC50 value belongs to "Nc1nccc2c(-c3ccnc(O)n3)c3cccnc3n12" ? 35.9

One more compound: "Nc1nccc(-c2c3c(Cl)ccnc3n3c(N)nccc23)n1" 32.1

Then what about the compound "Nc1nccc2c(-c3ccnc(O)n3)c3c(O)ccnc3n12" ? 24.5

Now consider "CSc1nccc(-c2c3ccc(C)nc3n3c(SC)nccc23)n1" and answer again. 19.8

Repeat with "CSc1nccc(-c2c3cccnc3n3c(SC)nccc23)n1" 25.7
